The reported measurements were obtained from ChEMBL document CHEMBL1811838.

System: Mus musculus
experiment notes: Toxicity in Plasmodium yoelii infected CF-1 mouse assessed as weight loss at 5 mg/kg, po qd for 3 days relative to control
Type: organism-based
Parameters: dose 5 mg/kg, route oral
run parameters: in vivo, 72 h
reported property: Activity (%)

In [3]: df
Out[3]:
                               query_smiles  reported_property  result_unit  measured_value
0  COC1=CC(c2ccc[nH]2)=N/C1=C\c1[nH]c(Cc2ccc(Cl)cc2)cc1Cc1ccc(Cl)cc1           Activity            %           107.5
1  CCCc1cc(Cc2ccc(Cl)cc2)c(/C=C2\N=C(c3ccc[nH]3)C=C2OC)[nH]1           Activity            %           102.9
2  COC1=CC(c2ccc[nH]2)=N/C1=C\c1[nH]ccc1Cc1ccc(Cl)cc1           Activity            %           101.2
3  CCCCCCc1cc(Cc2ccc(Cl)cc2)c(/C=C2\N=C(c3ccc[nH]3)C=C2OC)[nH]1           Activity            %           100.3
4  CCCCCCCCc1cc(Cc2ccc(Cl)cc2)c(/C=C2\N=C(c3ccc[nH]3)C=C2OC)[nH]1           Activity            %           100.2
5  CCCc1cc(CCC2CCCCC2)c(/C=C2\N=C(c3ccc[nH]3)C=C2OC)[nH]1           Activity            %           101.5
6  CCCCCCCCc1cc(CCC)c(/C=C2\N=C(c3ccc[nH]3)C=C2OC)[nH]1           Activity            %           100.1
